Tested on: CCRF-CEM leukemia
test summary: NCI tumour cell line growth inhibition, 48 h; in the data active = GI50 below about 0.43 µM; inactive = the rest
// allowed return values: 1 for active, -1 for inactive

As a guide, the following entries are already answered.
{"columns": ["compound", "category label"],
 "data": [
  ["N#Cc1cnc2cc(OC[C@@H](O)CO)c(NC(=O)C3CCCC3)cc2c1Nc1ccc(OCc2cccc(F)c2)c(Cl)c1", -1],
  ["COc1cc(Cl)cc(-c2nn(-c3cccc(NC(=O)Nc4cccc(C(F)(F)F)c4)c3)cc2-c2ccncc2)c1", -1],
  ["Cc1ccc(Nc2cc(Cl)c([N+](=O)[O-])cc2[N+](=O)[O-])cc1", -1],
  ["O=C(CSCC(=O)N/N=C/c1ccccc1O)N/N=C\\c1ccccc1O", -1],
  ["CC(C)(C)c1cc(C(=O)Nc2ccc(C(=O)NCCN)cc2)cc(C(C)(C)C)c1", -1],
  ["CN(C)C(=O)OCc1nc2c(N3CCOCC3)nc(-c3ccccc3)nc2n1C", 1]
]}

Fill in: this test's call for NCCCCCNc1noc(Cc2c[nH]c3cc(Br)ccc23)n1 is ___
-1

Same thing, different compound: Cc1cc(-c2nnc(/C=C/c3ccc4c(c3)OCO4)o2)n[nH]1
-1

Item: C[N+](C)(C)CC1CCC(C[N+](C)(C)C)C1=O (stereo not given)
1

What about CCCOc1cc2ccccc2cc1C(=O)Nc1nc(NC)c2c(ccc3nccc32)[nH]1 ?
1
